Values were extracted from PubChem BioAssay (NCI).

Recorded TGI values for a group of molecules are listed next.
System: NCI-H226 lung
protocol summary: NCI tumour cell line growth inhibition, 48 h
Where a SMILES comes first, the peptide text is derived from it. The star is where a group is joined. Boc = CC(C)(C)OC(=O)*; tBu = CC(C)(C)*
recorded endpoint: TGI

[
  {
    "molecule": "CC1=NNC(=O)[C@H]2[C@H]1CCC1[C@@H]2CC[C@]2(C)[C@@H](O)CC[C@@H]12 (stereo partly specified)",
    "val": "> 100 µM"
  },
  {
    "molecule": "O=C1c2ccccc2/C=C\\C(c2ccccc2)=N/N1c1ccccc1Cl",
    "val": "> 100 µM"
  },
  {
    "molecule": "Nc1ccn([C@@H]2S[C@H](CO)[C@@H](O)[C@@H]2F)c(=O)n1",
    "val": "> 48.4 µM"
  },
  {
    "molecule": "CCc1c(C#N)c(SC(C(N)=O)c2ccccc2)nc(N2CCC(N)CC2)c1C#N (stereo unspecified)",
    "val": "27.7 µM"
  },
  {
    "molecule": "Nc1ncnc2c1N=C(c1ccccc1)CC(c1ccccc1)N2 (stereo unspecified)",
    "val": "> 100 µM"
  },
  {
    "molecule": "Nc1nc2c(c(=O)[nH]1)NC(CCNc1ccc(C(=O)O)cc1)CN2 (stereo unspecified)",
    "val": "> 100 µM"
  },
  {
    "molecule": "N=C(N)c1ccc(N=Nc2c(O)ccc3cc(O)ccc23)cc1",
    "val": "> 100 µM"
  },
  {
    "molecule": "CC(C)=NNc1ncnc2nc[nH]c12",
    "val": "97 µM"
  },
  {
    "molecule": "O=C(O)Cc1ccc(Oc2nc3ccccc3nc2-c2ccccc2)cc1",
    "val": "> 100 µM"
  },
  {
    "molecule": "CC(OC(C)(C)C)C(NC(=O)C(N)CCCCNC(=O)OC(C)(C)C)C(=O)NC(Cc1ccccc1)C(=O)O (stereo unspecified) (H-Lys(Boc)-Thr(tBu)-Phe-OH; configuration not given here)",
    "val": "> 100 µM"
  },
  {
    "molecule": "CCOP(=O)(/C=C/n1cnc2c(=O)n(C(C)=O)c(N)nc21)OCC",
    "val": "> 100 µM"
  }
]
